Listed here: items and their measured pKi.
Biological target: PLK1 (Homo sapiens, UniProt P53350)
Sequence (P53350 whole entry): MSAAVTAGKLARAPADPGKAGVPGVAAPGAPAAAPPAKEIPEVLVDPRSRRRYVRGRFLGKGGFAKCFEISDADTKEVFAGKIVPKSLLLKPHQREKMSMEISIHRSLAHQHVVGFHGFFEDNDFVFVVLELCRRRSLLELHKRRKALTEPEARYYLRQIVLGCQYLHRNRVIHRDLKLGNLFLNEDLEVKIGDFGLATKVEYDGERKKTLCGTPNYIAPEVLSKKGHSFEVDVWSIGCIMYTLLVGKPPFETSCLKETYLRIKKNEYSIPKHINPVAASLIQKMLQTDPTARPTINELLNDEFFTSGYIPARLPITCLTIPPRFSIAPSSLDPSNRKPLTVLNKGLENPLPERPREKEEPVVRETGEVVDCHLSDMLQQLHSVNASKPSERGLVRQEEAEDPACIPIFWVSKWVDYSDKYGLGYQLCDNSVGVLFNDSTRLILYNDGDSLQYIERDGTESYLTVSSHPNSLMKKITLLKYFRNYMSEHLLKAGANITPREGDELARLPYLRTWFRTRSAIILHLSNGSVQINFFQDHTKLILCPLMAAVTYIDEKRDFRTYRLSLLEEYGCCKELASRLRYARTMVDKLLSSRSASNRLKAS
pKi: −log10 of the molar value.

Known results for compounds:
QUERY: Quick one: pKi of C[C@@H](Nc1ncc(C#N)c(-c2c[nH]c3ncc(C(F)(F)F)cc23)n1)c1ccc(C(=O)O)cc1 [Compound I-186] ?
RESULT: > 8.52

QUERY: Consider the compound N#Cc1cnc(NCCCN2CCOCC2)nc1-c1c[nH]c2ncc(C(F)(F)F)cc12 [Compound I-70] and give its measured pKi.
RESULT: < 7.40

More entries:
QUERY: # pKi lookup, item CNC(=O)c1ccc([C@@H](C)Nc2ncc(C#N)c(-c3c[nH]c4ncc(C(F)(F)F)cc34)n2)cc1 [Compound I-163]
RESULT: > 8.52

QUERY: Which pKi is reported for this compound? C[C@H](Nc1ncc(C#N)c(-c2c[nH]c3ncc(C(F)(F)F)cc23)n1)c1ccc(O[C@H]2CCN(C)C2)cc1 [Compound I-161]
RESULT: > 8.52

QUERY: Look at this compound and give its reported pKi. N#Cc1cnc(NCC2CCN(Cc3ccccc3)CC2)nc1-c1c[nH]c2ncc(C(F)(F)F)cc12 [Compound I-89]
RESULT: < 7.40

QUERY: Using the record for C[C@@H](Nc1ncc(C#N)c(-c2c[nH]c3ncc(C(F)(F)F)cc23)n1)C1CCNCC1 [Compound I-204] , report its pKi.
RESULT: 7.40 to 8.52

QUERY: Name the reported pKi value associated with the compound N#Cc1cnc(NCCN2CCOCC2)nc1-c1c[nH]c2ncc(C(F)(F)F)cc12 [Compound I-69]
RESULT: < 7.40

QUERY: Look up pKi for this compound: C[C@H](Nc1ncc(C#N)c(-c2c[nH]c3ncc(C(F)(F)F)cc23)n1)c1ccccc1 [Compound I-5]
RESULT: < 7.40

QUERY: Given CCC1(O)CCN(c2ccc(C(C)Nc3ncc(C#N)c(-c4c[nH]c5ncc(C(F)(F)F)cc45)n3)cn2)CC1 (centres unmarked) [Compound I-197] , state its recorded pKi.
RESULT: 7.40 to 8.52

QUERY: Look up pKi: CN(Cc1ccccc1)c1ncc(C#N)c(-c2c[nH]c3ncc(C(F)(F)F)cc23)n1 [Compound I-8]
RESULT: < 7.40

QUERY: Report pKi for C[C@@H](Nc1ncc(C#N)c(-c2c[nH]c3ncc(C(F)(F)F)cc23)n1)c1ccc(NS(=O)(=O)C2CC2)cc1 [Compound I-168] please.
RESULT: > 8.52

QUERY: # query: pKi of entry COc1ccccc1Sc1ncc(C#N)c(-c2c[nH]c3ncc(C(F)(F)F)cc23)n1 [II-14]
RESULT: < 7.40

QUERY: Endpoint output: pKi of CC(Nc1ncc(C#N)c(-c2c[nH]c3ncc(C(F)(F)F)cc23)n1)c1ccc(=O)[nH]c1 (centres unmarked) [Compound I-100] . Value?
RESULT: > 8.52

QUERY: Given the entry C[C@@H](Nc1ncc(C#N)c(-c2c[nH]c3ncc(C(F)(F)F)cc23)n1)c1ccc(O[C@@H]2CCN(C)C2)nc1 [Compound I-300] , report its measured pKi.
RESULT: > 8.52

QUERY: So what does the record say about pKi for CC(C)[C@H](CN1CCOCC1)Nc1ncc(C#N)c(-c2c[nH]c3ncc(C(F)(F)F)cc23)n1 [Compound I-128] ?
RESULT: 7.40 to 8.52

QUERY: Name the recorded pKi for CC(C)(Nc1ncc(C#N)c(-c2c[nH]c3ncc(C(F)(F)F)cc23)n1)C(=O)NCCC(F)(F)F [IA-1] .
RESULT: < 7.40

QUERY: I would be grateful if you could share the reported pKi for CC(O)CNc1ncc(C#N)c(-c2c[nH]c3ncc(C(F)(F)F)cc23)n1 (centres unmarked) [Compound I-91] .
RESULT: 7.40 to 8.52

QUERY: Form field: reported pKi of N#Cc1cnc(N2CCC[C@@H]2CN)nc1-c1c[nH]c2ncc(C(F)(F)F)cc12 [Compound I-87]
RESULT: < 7.40

QUERY: Any idea what its pKi is? The compound is C[C@@H]1CN(c2ccc([C@@H](C)Nc3ncc(C#N)c(-c4c[nH]c5ncc(C(F)(F)F)cc45)n3)cn2)CCN1 [Compound I-274]
RESULT: > 8.52

QUERY: Look up pKi for this compound: C[C@@H](Nc1ncc(C#N)c(-c2c[nH]c3ncc(C(F)(F)F)cc23)n1)C1CCN(C(=O)[C@@H](N)[C@@H](C)O)CC1 [Compound I-242]
RESULT: > 8.52

QUERY: For CC[C@@H](C)[C@@H](CO)Nc1ncc(C#N)c(-c2c[nH]c3ncc(C(F)(F)F)cc23)n1 [Compound I-116] , what is its reported pKi?
RESULT: 7.40 to 8.52

QUERY: Query (compound): C[C@@H](Nc1ncc(C#N)c(-c2c[nH]c3ncc(C(F)(F)F)cc23)n1)c1ccc(N2CC[C@@H](N(C)C)C2)nc1 [Compound I-286] ; field requested: pKi
RESULT: 7.40 to 8.52

QUERY: So what's the measured pKi for this one? N#Cc1cnc(NCc2cccc(F)c2)nc1-c1c[nH]c2ncc(C(F)(F)F)cc12 [Compound I-18]
RESULT: 7.40 to 8.52

QUERY: Look up pKi: C[C@@H](Nc1ncc(C#N)c(-c2c[nH]c3ncc(C(F)(F)F)cc23)n1)C1CCN(C(=O)[C@H](N)CC#N)CC1 [Compound I-251]
RESULT: > 8.52

Data origin, for the record: patent US8530489B2
